Test system: NCI-H460 lung
PROCEDURE_DETAILS: NCI tumour cell line growth inhibition, 48 h
RESULT_TYPE: TGI

Consider the reported TGI for these molecules:
- CSc1nc(-c2ccccc2)nc(=[N+]2CCOCC2)s1: > 100 µM
- C=C(CN1CCN(c2ccc(F)c(Cl)c2)CC1)c1ccc(C(=O)Nc2ccccc2N)cc1: > 100 µM
- C=C(Cl)CN1c2ccccc2C=Cc2ccccc21: 16.2 µM
- Fc1ccc2c(c1)nc1n2C(c2c(F)cccc2F)SC1 (configuration not stated): > 100 µM
- OCC(S)CS.[Bi] (configuration not stated): > 100 µM

Return reported TGI; argument: O=C1c2cc3ncsc3cc2C(=O)c2c(O)ccc(O)c21
> 100 µM

I have this molecule here, NC1=Nc2ccccc2Sc2ccccc21 , and I need its recorded TGI.
> 100 µM

====

System: NCI-H226 lung
PROCEDURE_DETAILS: NCI tumour cell line growth inhibition, 48 h
RESULT_TYPE: TGI

Find the measured TGI: item NC(=S)NS(=O)(=O)c1ccc(Cl)cc1 , target or system NCI-H226 lung.
> 100 µM

Reported TGI for NCI-H226 lung, given COc1ccc2c(c1)C=CC1C2CC[C@]2(C)C(NC(=O)/C=C/c3ccc(O)c(O)c3)CCC12 (stereo partly drawn) ?
41.3 µM

Any idea what TGI came out for CNC(=O)c1cc(-c2ccc(F)cc2)cc(-c2ccc(S(=O)(=O)N3CCCC3)cc2)c1N on NCI-H226 lung?
> 25 µM

====

System: IGROV1 ovarian
PROCEDURE_DETAILS: NCI tumour cell line growth inhibition, 48 h
RESULT_TYPE: TGI (µM)
Quick note: give the figure in µM, leave out the unit.

Some entries whose results are on file:
• CSc1nc2ccc(C)cc2cc1/C=C1/C=C(c2ccccc2)NC1=O = 24.1
• N#C/C(=C1\OC(N)=C(c2ccc(Cl)cc2)C1=O)c1ccc(Cl)cc1 = 38.3
• CCCCCCCCc1cc(O)ccc1O = 43.8
• O=S(=O)(Nc1ccc(Cl)c(Cl)c1)c1ccc(-c2cnc(C3CC3)o2)cc1 = 15.8
• CN1CCN(c2nc3cc(F)ccc3n3cccc23)CC1 = 87.6
• Cc1ccsc1/C=N/Nc1cc(C)c2ccccc2n1 = 6.33
• CCN1CCC(O)(/C=C/c2ccccc2)C(C(=O)/C=C/c2ccccc2)C1 (stereo unspecified) = 3.78
• O=C(/C=C/c1ccc(Cl)cc1Cl)c1ccc(Cl)cc1Cl = 55.8

Looking for the measured TGI of COc1ccc(C2=Nc3c(nc(SC)[nH]c3=O)NC(c3ccccc3)C2)cc1 (stereo unspecified) , can you help?
55.6

Entry under review: Cn1cc(-c2csc(-c3cn(C(=O)OC(C)(C)C)c4ccccc34)n2)c2cccnc21 . Reported TGI?
31

Quick one: TGI for CNC(=O)C1OC(n2cnc3c(NCc4cccc(I)c4)nc(Cl)nc32)C(O)C1O (stereo unspecified) ?
27.2

Request the reported TGI associated with N/C(CC(=O)NOC(=O)c1ccccc1)=N/OC(=O)c1ccccc1
31.7

Given the molecule O=C(O)c1cccc(S(=O)(=O)NN2C(=O)CSC2c2c(O)ccc3ccccc23)c1 (stereo unspecified) , what is its reported TGI?
45.1

Fill in: TGI of C[C@H]1CCC2C(OC(=O)[C@@H]2CN(C)C)[C@]2(C)C(=O)C=CC12O (stereo partly specified) is ___
42.5

Cited source: PubChem BioAssay (NCI)
